- Target entity: T1, Human polyclonal immunoglobulin G (IgG) (human)
- T1 construct: also called hIgG; IVIG
- Measurement protocol: affinity chromatography, peptide resin, 10 mg/mL hIgG in PBS; 3rd run, after alpha-chymotrypsin and then trypsin
*1 amine or outer side, *2 acyl side, *3 side chain or, on linkers, in order; H or OH if unused. Where no end group is shown, it is not given here. [ ]: non-standard residue; d: D form. Tyr(Me) = O-methyl-tyrosine, COc1ccc(C[C@H](N[*:1])C(=O)[*:2])cc1; Phe(4-Me) = Cc1ccc(C[C@H](N)C(=O)O)cc1; Lys(Me2) = CN(C)CCCC[C@H](N)C(=O)O; Cit = NC(=O)NCCC[C@H](N)C(=O)O
Outcome measure: IgG yield (%)
Dear colleague, please return just the value in %, with no unit written.

Item H[Tyr(Me)][Phe(4-Me)][Lys(Me2)][Phe(4-Me)]D-{Toyopearl AF‑Amino‑650M resin} (Variant of HYFKFD on Toyopearl resin, used as a negative control; also called HYMetFMetK(Met)2FMetD-Toyopearl) [HYMetFMetKMet2FMetD] has what recorded IgG yield?
53

Item H[Phe(4-Me)][Cit][Cit]HL-{Toyopearl AF‑Amino‑650M resin} (Variant of HFRRHL on Toyopearl resin; also called HFMetCitCitHL-Toyopearl) [HFMetCitCitHL] has what recorded IgG yield?
91

Others:
Item HWRGWV-{Toyopearl AF‑Amino‑650M resin} (not fully specified, Synthetic hexapeptide made directly on Toyopearl AF-Amino-650M resin after a first Fmoc-Ala-OH coupling, about 0.12 meq/g; also called HWRGWV-Toyopearl; original peptide ligand) has what recorded IgG yield?
36

Reference for the values: patent US10266566
